# credit: patent US10100129B2

Molecular target: T1, CD32a-H131 (FcgRIIa-H131) (Homo sapiens, UniProt P12318)
T1 sequence (P12318 34-217 limits assumed): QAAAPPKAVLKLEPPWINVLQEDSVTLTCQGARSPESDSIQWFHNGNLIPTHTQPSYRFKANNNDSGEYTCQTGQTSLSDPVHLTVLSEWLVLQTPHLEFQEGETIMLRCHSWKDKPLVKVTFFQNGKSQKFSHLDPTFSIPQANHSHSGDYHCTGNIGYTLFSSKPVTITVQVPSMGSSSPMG
Experiment: SPR binding to FcgR-his: CD32a-H131
Conditions: 1 μM antibody, anti-his Fab captured FcgR-his
% Rmax, binding to hCD32a-H131 values for the molecules below.
# unit: % | format: bare number

For orientation, consider the following solved cases.
Molecule	Observed
mAb4-IgG2.5 (protein, left off: another chain or arm of the molecule) constant: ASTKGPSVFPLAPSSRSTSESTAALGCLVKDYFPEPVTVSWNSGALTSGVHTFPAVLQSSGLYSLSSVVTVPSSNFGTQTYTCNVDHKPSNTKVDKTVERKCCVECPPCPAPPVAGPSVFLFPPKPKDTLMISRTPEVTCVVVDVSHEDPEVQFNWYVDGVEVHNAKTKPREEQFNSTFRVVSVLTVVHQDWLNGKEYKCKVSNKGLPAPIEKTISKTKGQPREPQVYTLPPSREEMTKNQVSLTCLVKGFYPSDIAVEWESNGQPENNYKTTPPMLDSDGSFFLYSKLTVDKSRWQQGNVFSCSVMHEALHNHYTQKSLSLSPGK	46
mAb8-IgG2.5G1-AY-V27 (protein, left off: another chain or arm of the molecule) constant: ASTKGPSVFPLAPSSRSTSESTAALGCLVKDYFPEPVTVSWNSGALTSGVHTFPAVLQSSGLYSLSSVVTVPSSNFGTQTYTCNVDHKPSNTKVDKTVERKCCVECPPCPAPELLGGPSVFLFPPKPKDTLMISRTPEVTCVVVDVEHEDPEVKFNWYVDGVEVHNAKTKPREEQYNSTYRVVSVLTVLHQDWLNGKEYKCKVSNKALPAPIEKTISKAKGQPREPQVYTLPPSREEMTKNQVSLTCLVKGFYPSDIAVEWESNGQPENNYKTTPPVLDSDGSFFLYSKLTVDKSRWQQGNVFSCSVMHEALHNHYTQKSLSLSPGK	76

Attention now shifts to the item below.
For the molecule mAb7-IgG2.5G1-AY-V27 (protein, left off: another chain or arm of the molecule) constant: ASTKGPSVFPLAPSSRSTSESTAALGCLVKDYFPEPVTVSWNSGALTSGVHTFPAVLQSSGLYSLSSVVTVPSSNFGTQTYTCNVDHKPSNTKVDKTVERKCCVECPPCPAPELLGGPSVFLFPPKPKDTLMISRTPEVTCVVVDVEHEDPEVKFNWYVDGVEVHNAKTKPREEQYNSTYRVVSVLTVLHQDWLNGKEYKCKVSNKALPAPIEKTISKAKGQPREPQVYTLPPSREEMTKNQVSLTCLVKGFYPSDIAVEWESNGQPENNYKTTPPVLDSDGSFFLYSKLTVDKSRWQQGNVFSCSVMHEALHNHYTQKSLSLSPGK , give its measured % Rmax, binding to hCD32a-H131 value. 74
